Read-out: CD38, CD38 (gene 952)
Assay: BSK_SAg_CD38: BioMAP Diversity Plus: SAg Assay for CD38 Biomarker Activity (AID 2283087)
Conditions: primary human HUVEC with PBMC; actives raise or lower the signal
The source made the active and inactive calls. How the source made its calls: active means hit-call score of the fitted dose curve at least 0.9, where 1 is the maximum; inactive means score below 0.9.
measured_parameter: AC50

[
  {
    "molecule": "O=C(O)C(F)(OC(F)(F)C(F)(F)C(F)(F)F)C(F)(F)F (centres undefined)",
    "AC50": "inactive"
  },
  {
    "molecule": "O=c1ssc(Cl)c1Cl",
    "AC50": "4.94 µM (active)"
  },
  {
    "molecule": "CC(C)(C)c1ccccc1OP(=O)(Oc1ccccc1)Oc1ccccc1",
    "AC50": "30.7 µM (active)"
  },
  {
    "molecule": "CCOP(=S)(OCC)SCSCC",
    "AC50": "inactive"
  },
  {
    "molecule": "CCCCN(CCCC)N=O",
    "AC50": "inactive"
  },
  {
    "molecule": "c1cc2c3c(cccc3c1)CC2",
    "AC50": "inactive"
  },
  {
    "molecule": "CCOP(=S)(OCC)SCSc1ccc(Cl)cc1",
    "AC50": "20 µM (active)"
  },
  {
    "molecule": "Cc1ccc(O)cc1C",
    "AC50": "inactive"
  },
  {
    "molecule": "CCOc1ccc(C(C)(C)COCc2cccc(Oc3ccccc3)c2)cc1",
    "AC50": "inactive"
  },
  {
    "molecule": "Nc1ccc([N+](=O)[O-])cc1Cl",
    "AC50": "inactive"
  }
]

For reference, reported AC50 for CC(Cc1ccc(OCC(=O)O)cc1)NCC(O)c1csc(C(F)(F)F)n1 (centres undefined) stands at inactive

The value of AC50 measured for the molecule O=P(OCC(Br)CBr)(OCC(Br)CBr)OCC(Br)CBr (centres undefined) turned out to be inactive

Per the record, "N#Cc1cc([N+](=O)[O-])ccc1N" has AC50 of inactive

Noted for "CC(C)(C)OOC(C)(C)C" : its AC50 reads inactive

The measured AC50 associated with "c1nc[nH]n1" reads inactive

Sample "CC(C)(C)c1ccc(O)cc1" ; AC50 observed: inactive
